Value source: paper PMC2362153

# Measurement description: Plasma pharmacokinetics of doxorubicin and metabolites after i.v. bolus in wild-type and mdr1a(-/-) mice (HPLC)
# Protocol conditions: female, FVB, mouse, plasma, iv, 5 mg kg-1, Plasma level, plasma; 4 h after i.v. 5 mg kg-1 doxorubicin; wild-type mice
Observation type: concentration at 4 h (nM)
Expressed in nM, but write only the number.

## Input Item `COc1cccc2c1C(=O)c1c(O)c3c(c(O)c1C2=O)C[C@@](O)(C(=O)CO)C[C@@H]3O[C@H]1C[C@H](N)[C@H](O)[C@H](C)O1` has what recorded concentration at 4 h?
## Output 70.9

---

# Measurement description: Plasma pharmacokinetics of doxorubicin and metabolites after i.v. bolus in wild-type and mdr1a(-/-) mice (HPLC)
# Protocol conditions: female, FVB, mouse, plasma, iv, 5 mg/kg, Vd, volume of distribution, wild-type mice; i.v. bolus 5 mg kg-1
Observation type: Vd (L/kg)
Give your result in L/kg as a bare value.

## Input Which Vd is listed for `COc1cccc2c1C(=O)c1c(O)c3c(c(O)c1C2=O)C[C@@](O)(C(=O)CO)C[C@@H]3O[C@H]1C[C@H](N)[C@H](O)[C@H](C)O1` ?
## Output 101
